ASSAY SYSTEM: LHRH binding sites on EFO-27 human ovarian cancer cells (human)
EXPERIMENT: competition with [125I-Tyr8]BRU-2477 on EFO-27 cells
pEC50: −log10 of the molar value. Non-standard residues stand in square brackets, D forms with d. Primed or numbered codes have the meaning given here. DO3A10CM″ = chelating group at the N-terminus (X in the sequence tables); pGlu = O=C1CC[C@@H](C(=O)O)N1; azaGly = NNC(=O)O; Sar = CNCC(=O)O
METRIC: pEC50

Solved cases below.
{"BINDER": "[pGlu]HWSH[dR]WYP[azaGly]-NH2 [BRU-2477]", "METRIC": "pEC50", "QUANTITATIVE READOUT": 6.13}
{"BINDER": "XRWSHXWXPX (DO3A10CM on N-terminus; AA1 Dnal2; AA6 Darg; AA8 Bpa4; AA10 azaGly-NH2) [BRU-2813]", "METRIC": "pEC50", "QUANTITATIVE READOUT": 6.48}
{"BINDER": "XRWSXXWXPX (DO3A10CM on N-terminus; AA1 Dnal2; AA5 Fur3ala; AA6 Darg; AA8 Bpa4; AA10 azaGly-NH2) [BRU-2960]", "METRIC": "pEC50", "QUANTITATIVE READOUT": 6.40}

a: GXRWSHXWXPX (DO3A10CM-Gly (linker) on N-terminus; AA1 Tpi; AA6 Darg; AA8 Bpa4; AA10 azaGly-NH2) [BRU-3053]
b: XHWSHXWXPX (DO3A10CM on N-terminus; AA1 Sar; AA6 Darg; AA8 Thy; AA10 azaGly-NH2) [BRU-2823]
c: {DO3A10CM″}-[Sar]HWSH[dR]WYP[azaGly]-NH2 [BRU-2758]
Please list these in order of increasing pEC50. Thank you! Reply format: the labels, ordered as requested.
c, b, a
(c: 5.00, b: 5.79, a: 6.49)

I: XRWSHXWXXX (DO3A10CM on N-terminus; AA1 Dnal2; AA6 Darg; AA8 Bpa4; AA9 Flp4; AA10 azaGly-NH2) [BRU-2994]
II: XHWSHXWXPX (DO3A10CM on N-terminus; AA1 Sar; AA6 Darg; AA8 Tyr(OBz); AA10 azaGly-NH2) [BRU-2820]
Input pair: I , II . Output: entry with lower pEC50. Select an item and report its label.
II
(II: 5.80, I: 6.22)
